# Lookup of reported growth keyed by entry
tested on: SN12C renal; assay: NCI-60 one-dose screen, 48 h (100 = growth as untreated, 0 = no growth, -100 = all killed); conditions: 10 µM unless noted
The panel holds about 83,000 compounds, 20% with a hit somewhere; the sample as a whole holds those more often.
Field format: number, assumed %, no unit text.

In: Query (molecule): O=[N+]([O-])c1ccc(Sc2cccc[n+]2[O-])c2nonc12 ; field requested: growth
Out: 93.6

In: Query (molecule): Cc1ccc(-c2cc3c(cc2O)C2CCCCC2(N2CCOCC2)O3)cc1 (centres undefined) ; field requested: growth
Out: 93.1

In: Query (molecule): COC(=O)[C@]12CC[C@@H](C)[C@H](C)[C@@H]1C1=CC[C@@H]3[C@@]4(C)C(C=O)=C[C@@](C)(COC(C)=O)[C@@H]4[C@H](O)C[C@@]3(C)[C@]1(C)CC2 ; field requested: growth
Out: -19.3

In: Query (molecule): O=S(=O)(NCCCNc1cc(-c2c(-c3cccc(O)c3)nc3sccn23)ccn1)c1cccc(Cl)c1 ; field requested: growth
Out: 27
